System: Escherichia coli
test: Antimicrobial activity against Escherichia coli ZJ87T expressing KPC-2 by CLSI method
Assay type: functional
Parameter MIC: see the listing below.
property: MIC (µg/mL)

NCC[C@H](O)C(=O)N[C@@H]1C[C@H](N)[C@@H](O[C@H]2O[C@H](CN)[C@@H](O)[C@H](O)[C@H]2O)[C@H](O)[C@H]1O[C@H]1O[C@H](CO)[C@@H](O)[C@H](N)[C@H]1O
1
CO/N=C(\C(=O)N[C@@H]1C(=O)N2C(C(=O)O)=C(COC(C)=O)CS[C@H]12)c1csc(N)n1
32
C[C@@H](O)[C@H]1C(=O)N2C(C(=O)O)=C(S[C@@H]3CN[C@H](C(=O)N(C)C)C3)[C@H](C)[C@H]12
8

====

Test system: Klebsiella pneumoniae
test: Antimicrobial activity against carbapenem-resistant Klebsiella pneumoniae FZ47 deficient in IMP-8, TEM-1, SHV-11, CTX-M-14, qnrB2, aac(6')-Ib, ompK35/36 by CLSI method
Assay type: functional
Parameter MIC: see the listing below.
property: MIC (µg/mL)

C[C@@H](O)[C@H]1C(=O)N2C(C(=O)O)=C(SCCNC=N)C[C@H]12 [IMIPENEM ANHYDROUS]
8
CO/N=C(\C(=O)N[C@@H]1C(=O)N2C(C(=O)O)=C(COC(C)=O)CS[C@H]12)c1csc(N)n1
256

====

Test system: Escherichia coli
test: Antimicrobial activity against Escherichia coli PU101T expressing CMY-2 by CLSI method
Assay type: functional
property: MIC (µg/mL)

NCC[C@H](O)C(=O)N[C@@H]1C[C@H](N)[C@@H](O[C@H]2O[C@H](CN)[C@@H](O)[C@H](O)[C@H]2O)[C@H](O)[C@H]1O[C@H]1O[C@H](CO)[C@@H](O)[C@H](N)[C@H]1O
1
CO/N=C(\C(=O)N[C@@H]1C(=O)N2C(C(=O)O)=C(COC(C)=O)CS[C@H]12)c1csc(N)n1
128

====

Tested on: Klebsiella aerogenes
test: Antimicrobial activity against carbapenem-resistant Enterobacter aerogenes PU41 deficient in CTX-M-14, DHA-1, qnrS1, ompC DEc, ompF by CLSI method
Format: functional
property: MIC (µg/mL)

CC(C)(O/N=C(\C(=O)N[C@@H]1C(=O)N2C(C(=O)[O-])=C(C[n+]3ccccc3)CS[C@H]12)c1csc(N)n1)C(=O)O
64
CN(C)c1cc(NC(=O)CNC(C)(C)C)c(O)c2c1C[C@H]1C[C@H]3[C@H](N(C)C)C(O)=C(C(N)=O)C(=O)[C@@]3(O)C(O)=C1C2=O
1
C[C@@H](O)[C@H]1C(=O)N2C(C(=O)O)=C(SCCNC=N)C[C@H]12 [IMIPENEM ANHYDROUS]
32
C[C@@H](O)[C@H]1C(=O)N2C(C(=O)O)=C(S[C@@H]3CN[C@H](C(=O)N(C)C)C3)[C@H](C)[C@H]12
8
C[C@@H](O)[C@H]1C(=O)N2C(C(=O)O)=C(S[C@@H]3CN[C@H](C(=O)Nc4cccc(C(=O)O)c4)C3)[C@H](C)[C@H]12
64

====

System: Klebsiella pneumoniae
test: Antimicrobial activity against Klebsiella pneumoniae ZJ18T expressing KPC-2, DHA-1 by CLSI method
Format: functional
property: MIC (µg/mL)

CO/N=C(\C(=O)N[C@@H]1C(=O)N2C(C(=O)O)=C(COC(C)=O)CS[C@H]12)c1csc(N)n1
8
CN(C)c1cc(NC(=O)CNC(C)(C)C)c(O)c2c1C[C@H]1C[C@H]3[C@H](N(C)C)C(O)=C(C(N)=O)C(=O)[C@@]3(O)C(O)=C1C2=O
0.06
CC(C)(O/N=C(\C(=O)N[C@@H]1C(=O)N2C(C(=O)[O-])=C(C[n+]3ccccc3)CS[C@H]12)c1csc(N)n1)C(=O)O
16
CO[C@@]1(NC(=O)Cc2cccs2)C(=O)N2C(C(=O)O)=C(COC(N)=O)CS[C@@H]21
128
C[C@@H](O)[C@H]1C(=O)N2C(C(=O)O)=C(SCCNC=N)C[C@H]12 [IMIPENEM ANHYDROUS]
2
C[C@@H](O)[C@H]1C(=O)N2C(C(=O)O)=C(S[C@@H]3CN[C@H](C(=O)N(C)C)C3)[C@H](C)[C@H]12
1
C[C@@H](O)[C@H]1C(=O)N2C(C(=O)O)=C(S[C@@H]3CN[C@H](C(=O)Nc4cccc(C(=O)O)c4)C3)[C@H](C)[C@H]12
2

====

Tested on: Enterobacter cloacae
test: Antimicrobial activity against carbapenem-resistant Enterobacter cloacae GX56 deficient in ompC and expressing low levels of ompF DE by CLSI method
Format: functional
property: MIC (µg/mL)

CC(C)(O/N=C(\C(=O)N[C@@H]1C(=O)N2C(C(=O)[O-])=C(C[n+]3ccccc3)CS[C@H]12)c1csc(N)n1)C(=O)O
256
C[C@@H](O)[C@H]1C(=O)N2C(C(=O)O)=C(S[C@@H]3CN[C@H](C(=O)Nc4cccc(C(=O)O)c4)C3)[C@H](C)[C@H]12
32
C[C@@H](O)[C@H]1C(=O)N2C(C(=O)O)=C(S[C@@H]3CN[C@H](C(=O)N(C)C)C3)[C@H](C)[C@H]12
4
CN(C)c1cc(NC(=O)CNC(C)(C)C)c(O)c2c1C[C@H]1C[C@H]3[C@H](N(C)C)C(O)=C(C(N)=O)C(=O)[C@@]3(O)C(O)=C1C2=O
4
C[C@@H](O)[C@H]1C(=O)N2C(C(=O)O)=C(SCCNC=N)C[C@H]12 [IMIPENEM ANHYDROUS]
4

====

Tested on: Klebsiella pneumoniae
test: Antimicrobial activity against carbapenem-resistant Klebsiella pneumoniae ZJ70 deficient in KPC-2, SHV-11, CTX-M-14, ompK35/36 by CLSI method
Format: functional
property: MIC

C[C@@H](O)[C@H]1C(=O)N2C(C(=O)O)=C(S[C@@H]3CN[C@H](C(=O)N(C)C)C3)[C@H](C)[C@H]12
256 µg/mL
C[C@@H](O)[C@H]1C(=O)N2C(C(=O)O)=C(S[C@@H]3CN[C@H](C(=O)Nc4cccc(C(=O)O)c4)C3)[C@H](C)[C@H]12
> 256 µg/mL
CN(C)c1cc(NC(=O)CNC(C)(C)C)c(O)c2c1C[C@H]1C[C@H]3[C@H](N(C)C)C(O)=C(C(N)=O)C(=O)[C@@]3(O)C(O)=C1C2=O
0.25 µg/mL
CO[C@@]1(NC(=O)Cc2cccs2)C(=O)N2C(C(=O)O)=C(COC(N)=O)CS[C@@H]21
128 µg/mL
NCC[C@H](O)C(=O)N[C@@H]1C[C@H](N)[C@@H](O[C@H]2O[C@H](CN)[C@@H](O)[C@H](O)[C@H]2O)[C@H](O)[C@H]1O[C@H]1O[C@H](CO)[C@@H](O)[C@H](N)[C@H]1O
> 256 µg/mL
CC(C)(O/N=C(\C(=O)N[C@@H]1C(=O)N2C(C(=O)[O-])=C(C[n+]3ccccc3)CS[C@H]12)c1csc(N)n1)C(=O)O
64 µg/mL
CO/N=C(\C(=O)N[C@@H]1C(=O)N2C(C(=O)O)=C(COC(C)=O)CS[C@H]12)c1csc(N)n1
> 256 µg/mL
C[C@@H](O)[C@H]1C(=O)N2C(C(=O)O)=C(SCCNC=N)C[C@H]12 [IMIPENEM ANHYDROUS]
> 256 µg/mL

====

Test system: Enterobacter cloacae
test: Antimicrobial activity against carbapenem-resistant Enterobacter cloacae RJ94 deficient in IMP-4, TEM-1, CTX-M-3, ompC by CLSI method
Assay type: functional
Parameter MIC: see the listing below.
property: MIC

NCC[C@H](O)C(=O)N[C@@H]1C[C@H](N)[C@@H](O[C@H]2O[C@H](CN)[C@@H](O)[C@H](O)[C@H]2O)[C@H](O)[C@H]1O[C@H]1O[C@H](CO)[C@@H](O)[C@H](N)[C@H]1O
0.5 µg/mL
C[C@@H](O)[C@H]1C(=O)N2C(C(=O)O)=C(S[C@@H]3CN[C@H](C(=O)Nc4cccc(C(=O)O)c4)C3)[C@H](C)[C@H]12
32 µg/mL
CC(C)(O/N=C(\C(=O)N[C@@H]1C(=O)N2C(C(=O)[O-])=C(C[n+]3ccccc3)CS[C@H]12)c1csc(N)n1)C(=O)O
> 256 µg/mL

====

Tested on: Escherichia coli
test: Antimicrobial activity against carbapenem-resistant Escherichia coli PU43 deficient in TEM-1, CTX-M-14, aac(6')-Ib, ompC/F by CLSI method
Format: functional
property: MIC

NCC[C@H](O)C(=O)N[C@@H]1C[C@H](N)[C@@H](O[C@H]2O[C@H](CN)[C@@H](O)[C@H](O)[C@H]2O)[C@H](O)[C@H]1O[C@H]1O[C@H](CO)[C@@H](O)[C@H](N)[C@H]1O
8 µg/mL
C[C@@H](O)[C@H]1C(=O)N2C(C(=O)O)=C(S[C@@H]3CN[C@H](C(=O)Nc4cccc(C(=O)O)c4)C3)[C@H](C)[C@H]12
32 µg/mL
CC(C)(O/N=C(\C(=O)N[C@@H]1C(=O)N2C(C(=O)[O-])=C(C[n+]3ccccc3)CS[C@H]12)c1csc(N)n1)C(=O)O
32 µg/mL
CN(C)c1cc(NC(=O)CNC(C)(C)C)c(O)c2c1C[C@H]1C[C@H]3[C@H](N(C)C)C(O)=C(C(N)=O)C(=O)[C@@]3(O)C(O)=C1C2=O
0.25 µg/mL
C[C@@H](O)[C@H]1C(=O)N2C(C(=O)O)=C(SCCNC=N)C[C@H]12 [IMIPENEM ANHYDROUS]
8 µg/mL
CO/N=C(\C(=O)N[C@@H]1C(=O)N2C(C(=O)O)=C(COC(C)=O)CS[C@H]12)c1csc(N)n1
> 256 µg/mL
CO[C@@]1(NC(=O)Cc2cccs2)C(=O)N2C(C(=O)O)=C(COC(N)=O)CS[C@@H]21
128 µg/mL

Origin of the recorded values: ChEMBL document CHEMBL1212738
